Reported inhibition values for the following compounds.
Tested on: transactivating tegument protein VP16 (Human herpesvirus 1), Gal4-VP16 luciferase reporter
Test Description: VP16 transactivation inhibitors, counter-screen for SRC3 inhibitor project, cell-based, luminescence, high throughput (AID 588794)
Measurement Conditions: mammalian cells, VP16-driven luciferase reporter luminescence; at 3.6 µM; stronger effect = higher value
API: value field is a number in %; no unit string.

Consider the worked cases shown below.
Cc1c([N+](=O)[O-])c2ccc(O)cc2n1-c1ccccc1 :: 31.6
COC(=O)c1cc(N/C(N)=N/c2nc(C)cc(C)n2)cc(C(=O)OC)c1 :: 55.4
COc1cccc(-c2ccc3ncnc(NCc4ccc5c(c4)OCO5)c3c2)c1 :: 30.1
[O-]C(=C(C(=S)Nc1cccc2ccccc12)[n+]1ccccc1)c1ccc2c(c1)OCCO2 :: -0.81
Cc1[nH]c2ccccc2c(=O)c1C(=O)/C=C/c1ccccc1 :: 58
CCCS(=O)(=O)c1cnc(C2COc3ccccc3O2)nc1N (stereo not drawn) :: 44.9
CC(C)(C)c1ccc(/C=N/Nc2ccc(C(=O)O)cc2)cc1 :: 32.6
C/C(=N\NC(=S)Nc1cc(S(=O)(=O)N2CCOCC2)ccc1Cl)c1ccccc1F :: 28.8

inhibition for `CC(C)(C)c1cc(C(=O)N/N=C/c2ccccc2O)n(-c2ccccc2)n1` ?
40.6

Please look up its inhibition: `O=C(Nc1nc2cc3c(cc2s1)OCCO3)C1=COCCO1`
26.9

Reported inhibition, compound CCc1ccc(OCC(=O)NC(NC(=S)Nc2ccc(Cl)cc2)C(Cl)(Cl)Cl)cc1 (stereo not drawn) : ____
0.6

What value of inhibition has been reported for the following compound? COc1cc(C2C(C#N)=C(SC)NC3=C2C(=O)CCC3)ccc1O (stereo not drawn)
14.7

Endpoint output: inhibition of `Cc1nn(-c2ccccc2Cl)c(Cl)c1/C=N/Nc1nc2ccccc2s1` . Value?
73.5
